Entries and their measured viability at 28.5 h, 10 µM follow.
# Test Summary: in vitro
# Stated Conditions: human, hela cells, % viability
Experimental Readout: viability at 28.5 h, 10 µM (%)

INSERT INTO assay_data (molecule, recorded_value) VALUES
  ('Oc1cc(C(F)(F)F)nc(N2CCCC2)n1 [CBK002389]', 105),
  ('O=C(NCCc1ccccc1)c1cc(Br)cnc1NCCCn1ccnc1 [CBK076421]', 103),
  ('Cc1cc(C(=O)Nc2ccc(-c3nc4ccccc4s3)c(O)c2)ccc1[N+](=O)[O-] [CBK262820]', 92.6),
  ('COc1ccc(OCCNC(=O)c2cc(-c3cccnc3)cnc2N2CCOCC2)cc1 [CBK076341]', 96.2),
  ('CCCN1C[C@@H](O)C[C@H]2[C@H](O)[C@@H]1c1ccccc1N2C(=O)OC [CBK007809]', 91.8),
  ('Fc1ccc(C2CCCN(CCCOc3cccc(F)c3)C2)cc1 (stereo not drawn) [CBK016228B]', 102),
  ('COc1ccccc1OCC(O)CN1CCN(C(=O)c2ccccc2)CC1 (stereo not drawn) [CBK074386C]', 111),
  ('COC(=O)c1cc(OC)c(OC)cc1NC(=S)N1CCC(C(N)=O)CC1 [CBK268507]', 93.3),
  ('CCn1ncc2c1CCCC2NC1CCN(c2ccccc2)C1=O (stereo not drawn) [CBK305144]', 93.6),
  ('CCOC(=O)C1CCN(C(=O)Cn2cnc3ccc(Br)cc3c2=O)CC1 [CBK306070]', 106),
  ('CCNC(=O)Nc1cc2cccnc2nc1-c1ccc(S(C)(=O)=O)cc1 [CBK070706]', 93.3),
  ('Sc1nnc(COc2ccccc2)n1/N=C/c1cccnc1 [CBK265308]', 103),
  ('O=C(NC1Cc2ccccc2C1)c1ccno1 [CBK200358]', 99.4),
  ('COc1ccc(-c2c(C)nc(N)nc2-c2ccc(OC)cc2O)cc1 [CBK288186]', 85.7),
  ('C=CCNC(=O)N[C@H]1[C@H](O)[C@@H](N2CCC(C(=O)OC)CC2)[C@@H]2OC[C@H]1O2 [CBK288807]', 82.1),
  ('CN(C)S(=O)(=O)c1cc(C(=O)Nc2ccc(C(=O)O)cc2)c(Cl)cc1Cl [CBK266783]', 99.5),
  ('NS(=O)(=O)c1ccc(NC(=S)NC(=O)/C=C/c2ccco2)cc1 [CBK261066]', 93),
  ('CCCS(=O)(=O)NC1CCN(c2nc(C(F)(F)F)nc3[nH]cnc23)CC1 [CBK304587]', 105),
  ('CC(=O)OCc1c(C)cc(C)c(CN(C)C(C)c2ccncn2)c1C (stereo not drawn) [CBK307315]', 95.1),
  ('C[C@H](Cn1nc2c(cc1=O)CCCCC2)NC(=O)c1ccccc1F [CBK284547]', 89.5),
  ('CC(C)C1C(=O)Nc2ccccc2N1C(=O)NCCC(=O)O (stereo not drawn) [CBK286659]', 87.4),
  ('COC(=O)c1nn(C(=O)N(C)C)c(C)c1Br [CBK005077]', 88.5),
  ('O=C(O)CCCn1cc(NC(=O)c2cccc(F)c2)cn1 [CBK270051]', 91.4),
  ('O=C(c1ccc(-n2cccn2)nc1)N1CCN(c2ccccc2O)CC1 [CBK297794]', 83.8),
  ('COc1ccccc1-c1ccc(NC(=O)c2ccc3c(c2)ncn3C)cc1 [CBK285652]', 103),
  ('O=C(O)CCC(=O)NNc1ccccc1[N+](=O)[O-] [CBK261546]', 95.7),
  ('COc1cccc2c1OCC[C@@H]2Oc1cncc(N2CCNCC2)n1 [CBK172305G]', 106);
